# Target System: T1, GST-PDZ fusion protein, PDZ domain of MAST2 (Accession no. AB047005), Q6P0Q8
# T1 chain: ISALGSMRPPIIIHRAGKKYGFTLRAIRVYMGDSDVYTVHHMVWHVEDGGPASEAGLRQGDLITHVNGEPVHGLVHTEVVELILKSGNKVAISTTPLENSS
# Assay Protocol: ELISA (G Assay)
# Experimental Conditions: chains peptide; modification not given
Quantity Name: EC50 (µM)
Give the number; µM is assumed, so skip it.

# input Item under review: RRRSGLDDINPTVLLKERSTEL [Peptide 1957] . Reported EC50?
# output 23.1
